Reported melting point values for a set of molecules
Kindly provide the numeric value in °C only, without the unit symbol.

| SMILES_RECORD | UNIT | melting point |
| --- | --- | --- |
| CCc1cccc(C)c1CNc1cc(COC)cn2nc(C)nc12 | °C | 98.7 |
| CCc1cccc(C)c1CNc1cc(C(=O)O)cn2nc(C)nc12 | °C | 264.1 |
| CCc1cccc(C)c1CNc1cc(C(=O)OC)cn2nc(C)nc12 | °C | 139.8 |
| CCc1cccc(C)c1CNc1cc(CNC)cn2nc(C)nc12 | °C | 179 |

Prompt: Specify measured melting point for `CCc1cccc(C)c1CNc1cc(CN(C)C)cn2nc(C)nc12.Cl` .
Response: 235.8

Prompt: Specify measured melting point for `CCc1cccc(C)c1CNc1cc(CN2CCOCC2)cn2nc(C)nc12` .
Response: 97.2

Prompt: Specify measured melting point for `CCc1cccc(C)c1CNc1cc(CO)cn2nc(C)nc12` .
Response: 180.3

Prompt: Specify measured melting point for `CCc1cccc(C)c1CNc1cc(COCCOC)cn2nc(C)nc12.Cl` .
Response: 120.2

Prompt: Specify measured melting point for `CCc1cccc(C)c1CNc1cc(Cn2ccnc2)cn2nc(C)nc12` .
Response: 158.5
